Where these numbers come from: patent US20240360154A1

targetSystem: BTK (C481S) (Homo sapiens (Human), UniProt Q06187, C481S)
Sequence (Q06187 whole entry C481S): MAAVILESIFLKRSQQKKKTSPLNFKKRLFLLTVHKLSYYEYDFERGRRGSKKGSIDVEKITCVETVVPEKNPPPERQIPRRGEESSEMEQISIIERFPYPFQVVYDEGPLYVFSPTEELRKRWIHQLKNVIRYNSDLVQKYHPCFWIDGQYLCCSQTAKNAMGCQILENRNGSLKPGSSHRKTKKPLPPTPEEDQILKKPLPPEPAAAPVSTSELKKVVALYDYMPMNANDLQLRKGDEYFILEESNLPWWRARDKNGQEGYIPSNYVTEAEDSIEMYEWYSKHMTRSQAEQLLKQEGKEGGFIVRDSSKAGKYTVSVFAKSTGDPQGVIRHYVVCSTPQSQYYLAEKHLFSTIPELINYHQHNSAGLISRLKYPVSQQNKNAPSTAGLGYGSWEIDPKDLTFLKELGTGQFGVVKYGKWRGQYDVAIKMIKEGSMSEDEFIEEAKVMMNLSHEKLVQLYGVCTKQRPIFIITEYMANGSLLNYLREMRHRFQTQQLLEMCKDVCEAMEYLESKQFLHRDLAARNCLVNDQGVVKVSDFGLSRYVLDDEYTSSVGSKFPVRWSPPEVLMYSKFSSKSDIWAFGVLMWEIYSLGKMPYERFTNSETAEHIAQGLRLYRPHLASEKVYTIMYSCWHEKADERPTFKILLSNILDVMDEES
experimentalProtocol: BTK C481S enzyme experiment (ADP-Glo kinase assay)
experimentalSetup: 10 nM BTK C481S, ATP 125 μM, Poly(Glu4, Tyr1), 90 minutes at 20° C.
Experimental: A 3-fold gradient concentration stock solution of 1000× compound was prepared using DMSO and diluted 100-fold to 10× compound stock solution using reaction buffer (50 mM HEPES, pH 7.5, 0.0015% Briji-35, 2 mM DTT, 10 mM MgCl2), and the 10× compound stock solution was transferred to a 384-well plate. […] Finally, the kinase activity was detected according to the experimental steps provided by ADP-Glo™ kinase Assay Kit (Promega, #V9101), and finally the luminescence chemiluminescence value was read. […]
pIC50: −log10 of the molar value.
resultType: pIC50

molecule	targetSystem	numericValue
[2H]C([2H])([2H])OC[C@]1(C)Nc2c(cnc3[nH]cc(C(=O)c4ccc(Oc5ccccc5)cc4Cl)c23)NC1=O (single isomer, unassigned)	BTK (C481S) (Homo sapiens (Human), UniProt Q06187, C481S)	8.42
COC[C@]1(C)Nc2c(cnc3[nH]cc(C(=O)c4ccc(Oc5cccc(C)n5)cc4Cl)c23)NC1=O	BTK (C481S) (Homo sapiens (Human), UniProt Q06187, C481S)	7.52

(P) COC1CCC2(C1)Nc1c(cnc3[nH]cc(C(=O)c4ccc(Oc5ccccc5)cc4Cl)c13)NC2=O (stereo not drawn) [Z25]
(Q) COCC1(C)Nc2c(cnc3[nH]cc(C(=O)c4ccc(Oc5cc(C)ccn5)cc4F)c23)NC1=O (stereo not drawn) [Z69]
(R) COC[C@@]1(C)Nc2c(cnc3[nH]cc(C(=O)c4ccc(Oc5ccccc5)cc4F)c23)NC1=O (single isomer, unassigned)
(S) COC[C@]1(C)Nc2c(cnc3[nH]cc(C(=O)c4ccc(Oc5cc(C)cc(C)n5)cc4F)c23)NC1=O
Request: Rank order required: pIC50, descending. Output the labels ranked as instructed.
Result: P, R, Q, S

###

targetSystem: BTK (C481S) (Homo sapiens (Human), UniProt Q06187, C481S)
experimentalProtocol: BTK C481S enzyme experiment (ADP-Glo kinase assay)
experimentalSetup: 10 nM BTK C481S, ATP 125 μM, Poly(Glu4, Tyr1), 90 minutes at 20° C.
resultType: IC50 (nM)

Recorded IC50, per entry:
compound	IC50 [nM]
O=C(c1ccc(Oc2ccccc2)cc1Cl)c1c[nH]c2ncc3c(c12)NC1(CCOC1)C(=O)N3 (stereo not drawn)	18.9
COC[C@]1(C)Nc2c(cnc3[nH]cc(C(=O)c4c(F)cccc4Cl)c23)NC1=O	25.8

(a) Cc1ccnc(Oc2ccc(C(=O)c3c[nH]c4ncc5c(c34)NC(C)(CO)C(=O)N5)c(Cl)c2)c1 (stereo not drawn)
(b) COC[C@]1(C)Nc2c(cnc3[nH]cc(C(=O)c4ncc(Oc5ccccc5)cc4Cl)c23)NC1=O
(c) COC[C@]1(C)Nc2c(cnc3[nH]cc(C(=O)c4ccc(Oc5ccccc5F)cc4Cl)c23)NC1=O
(d) COC[C@]1(C)Nc2c(cnc3[nH]cc(C(=O)c4ccc(OC)cc4Cl)c23)NC1=O
(e) [2H]C([2H])([2H])OC[C@]1(C)Nc2c(cnc3[nH]cc(C(=O)c4ccc(Cn5ccc(C)n5)cc4Cl)c23)NC1=O
Request: List by increasing IC50. Output the labels ranked as instructed.
Result: c, a, b, d, e
(c: 10.6 nM, a: 18.4 nM, b: 38.4 nM, d: 61.1 nM, e: 115 nM)
